assay_protocol: Induction of anti-CD3 antibodies-stimulated human T cell activation at 8 uM assessed fold increase in CD25 expression measured by ELISA assay; also: reference of the scale not given here
Type: functional, T cell line
property: fold change (FC)

{"molecule": "COc1cccc(C(=O)Nc2cccc([C@H](C)Sc3nncn3C)c2)n1", "property": "fold change (FC)", "reported_measurement": 0.601}
{"molecule": "Cn1cnnc1[C@H](F)[C@@](C)(F)c1cccc(N2Cc3c(cc(C4CC4)cc3C(F)(F)F)C2=O)c1 (single isomer, unassigned; 482)", "property": "fold change (FC)", "reported_measurement": 0.801}
{"molecule": "C[C@H](Cc1nncn1C)c1ccnc(NC(=O)c2cccc(C(F)(F)F)n2)c1", "property": "fold change (FC)", "reported_measurement": 0.801}
{"molecule": "Cc1ccc(C(=O)Nc2cccc([C@H](C)Sc3nncn3C)c2)nc1C", "property": "fold change (FC)", "reported_measurement": 0.601}
{"molecule": "Cc1conc1C[C@@H](C)c1cccc(N2Cc3c(cccc3C(F)(F)F)C2=O)c1", "property": "fold change (FC)", "reported_measurement": 0.801}
{"molecule": "Cn1cnnc1[C@H](F)C(C)(F)c1cccc(N2Cc3c(cccc3C(F)(F)F)C2=O)c1 (single isomer, unassigned)", "property": "fold change (FC)", "reported_measurement": 0.801}
{"molecule": "C[C@H](O)CNc1cc([C@H](C)Cc2nncn2C)cc(N2Cc3c(cccc3C(F)(F)F)C2=O)n1", "property": "fold change (FC)", "reported_measurement": 0.601}
{"molecule": "Cc1cc(C(=O)Nc2cccc([C@H](C)Sc3nncn3C)c2)nc2ccccc12", "property": "fold change (FC)", "reported_measurement": 0.801}
{"molecule": "Cc1conc1CC(C)c1cccc(N2Cc3c(cccc3C(F)(F)F)C2=O)c1 (centres undefined)", "property": "fold change (FC)", "reported_measurement": 0.801}
{"molecule": "CC(Sc1nncn1C)c1cc(F)cc(N2Cc3c(cccc3C(F)(F)F)C2=O)c1 (centres undefined)", "property": "fold change (FC)", "reported_measurement": 0.601}
{"molecule": "Cn1cnnc1C(F)(F)[C@](C)(F)c1cccc(NC(=O)c2nc3c(C(F)(F)F)cccc3[nH]2)c1", "property": "fold change (FC)", "reported_measurement": 0.601}
{"molecule": "CC(Cc1nncn1C)c1cc(N[C@@H]2CCOC2)nc(N2Cc3c(cccc3C(F)(F)F)C2=O)c1 (single isomer, unassigned)", "property": "fold change (FC)", "reported_measurement": 0.801}
{"molecule": "C[C@@H](c1cccc(N2Cc3c(cccc3C(F)(F)F)C2=O)c1)C(F)(F)c1nncn1C", "property": "fold change (FC)", "reported_measurement": 0.801}
{"molecule": "Cc1cc2c(c(C3CC3)n1)CN(c1cccc([C@H](C)Cc3nncn3C)c1)C2=O", "property": "fold change (FC)", "reported_measurement": 0.801}

* * *

assay_protocol: Induction of anti-CD3/CD28 antibodies-stimulated human T cell activation at 1.11 uM assessed fold increase in TNF-alpha secretion measured by ELISA assay
Type: functional, T cell line

{"smiles_input": "C[C@H](Sc1nncn1C)c1cccc(NC(=O)c2cccc(C(F)(F)F)n2)c1", "fold change (FC)": 1.51}
{"smiles_input": "Cn1cnnc1CC1(c2cccc(N3Cc4c(cc(CN5CC[C@H](C#N)C5)cc4C(F)(F)F)C3=O)c2)COC1", "fold change (FC)": 2.01}
{"smiles_input": "C[C@H](Cc1nncn1C)c1cccc(NC(=O)c2n[nH]c3c2CCC3)c1", "fold change (FC)": "<=1.5"}
{"smiles_input": "C[C@@H](c1cc2c(c(C(F)(F)F)c1)CN(c1cccc(C3(Cc4nncn4C)COC3)c1)C2=O)N1CC[C@H](F)C1", "fold change (FC)": 2.01}
{"smiles_input": "Cn1cnnc1CC1(c2cccc(NC(=O)c3nc4c(C(F)(F)F)cccc4[nH]3)c2)COC1", "fold change (FC)": 1.51}
{"smiles_input": "Cc1n[nH]c(C)c1-c1cc2c(c(C(F)(F)F)c1)CN(c1cccc(C3(Cc4nncn4C)COC3)c1)C2=O", "fold change (FC)": 1.51}
{"smiles_input": "C[C@H](Cc1nncn1C)c1cccc(N2Cc3c(cccc3C(F)(F)F)C2=O)c1.Cl", "fold change (FC)": "<=1.5"}
{"smiles_input": "Cn1cnnc1C(F)(F)[C@](C)(F)c1cccc(N2Cc3c(cc(C(=O)N4CC[C@H](O)C4)cc3C(F)(F)F)C2=O)c1", "fold change (FC)": "<=1.5"}
{"smiles_input": "COC1CN(Cc2cc3c(c(C(F)(F)F)c2)CN(c2cccc([C@@](C)(F)C(F)(F)c4nncn4C)c2)C3=O)C1", "fold change (FC)": 1.51}

Hello, the source for this data is ChEMBL document CHEMBL5050844, in case you need it.
